Experimental system: CPXV ortholog of D8 (cowpox virus)
Test: cell-based or functional assay
Measure: PRNT IC50, CPXV MV+C' (µg/mL)
Please give a number only; it is taken to be in µg/mL.

Binder	Unit	PRNT IC50, CPXV MV+C'
MPXV-27 (antibody, V domains shown) VH: QVQLQQWGAGLLKPSETLSLTCDVYGGSFSGYYWSWIRQPPGKGLEWIGEINHSGSTTYTPSLRSRVTISVDTSKNQFSLKLSSVTAADTAVYYCARVLSGWLPFPNYYYYMDVWGKGTTVT VL: DIQMTQSPSSLPASVGDRVTITCRASQDIRNNLGWYQQKPGKAPERLIYGTSNLQSGVPSRFSGSGSGTEFTLTISSLQPEDFATYYCLQHNSYPPTFGRGTKVEIK	µg/mL	0.08
VACV-128 (antibody, V domains shown) VH: EVQLVQSGAEVKKPGATVKISCKVSGYTFTDYYMHWVQQAPGKGLKWMGLLDPLDGETIYSEKFQGKVTITADTSTDTAYMELSSLRSEDTAVYYCARELTGYLNYWGQGTLVTVSS VL: DIQMTQSPSSLSASVGDRVTITCRASPGICNYLAWYQHKPGKVPKLLIYAASTLQSGVPSRFTGVGSGTNFTLTINNLPPENVATYYCQKYNSAPHTFGQGTKVDIK	µg/mL	0.3
VACV-8 (antibody, V domains shown) VH: QVQLQQWGAGLLKPSETLSLTCAGYGGSFSGYFWSWIRQPPGKGLEWIGEINHSGSTDYNPSLKSRVTISLDTSKTQFSLKLSSVTAADTAVYYCARVMTGITNYYYYYGMDVWGQGTTVTF VL: DIQLTQSPSFLSASVGDRVTITCRASQDISSYLAWYQQKPGKAPKLLIYAASTLQSGVPSRFSGSESGTEFTLTISSLQPENFATYYCQHLNSYPRGYTFGQGTKVDIK	µg/mL	2

Kindly consider the entry below.
[ask] Quick one: PRNT IC50, CPXV MV+C' of VACV-136 (antibody, V domains shown) V domain 1: QVTLKESGPVLVNPTETLTLTCTVSGFSLSNARMRVSWIRQPPGKALEWLAHIFSNDEKSYSTSLKSRLTISKDTSKSQVVLTMTNMDPVDTASYYCARMRGEYNSYYFDSWGQGTLVTVS V domain 2: SYELTQPPSVSVSPGQTARITCSGDALPNQYAYWYQQKPGQAPVLVIYKDSERPSGIPERFSGSSSGTTVTLTISGVQAEDEADYYCQSADSSGTSVVFGGGTQVTV ?
[reply] 0.2
